assay: mitochondrial membrane potential change in A549 cells, profiling panel, cell-based, JC-1 fluorescence, basal, 24 h, 100 nL (AID 1138); details: higher = more signal;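 further: A549 lung adenocarcinoma cells under basal conditions with no added stimulus; test concentration not given here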
ASSAY READOUT: z-score
Lab note: jot the number down without any unit.

Before answering, review these 5 worked examples.
# input compound: O=C(NCCCCCNC(=O)/C(Cc1ccccc1)=N/O)OCc1ccccc1 ; wanted: its z-score
0.552

Suppose we examine the compound CN(C)CCCNC(=O)[C@@]1(c2ccc([N+](=O)[O-])cc2)CC(=O)N(CC23CC4CC(CC(C4)C2)C3)[C@@H]1c1ccc(CO)cc1I ; what z-score value has been reported?
-2.32

What value of measured z-score is listed for C=C[C@@H](OC)[C@H](OC(=O)Nc1ccc(SC)cc1)c1ccc(O)c(F)c1 ?
-1.47

Find the recorded z-score belonging to COc1ccc(C#Cc2ccc3c(c2)[C@]2(C(=O)N3)[C@H](c3ccc(O)cc3)N3[C@H](c4ccccc4)[C@H](c4ccccc4)OC(=O)[C@H]3[C@@H]2C(=O)O)cc1 and report it.
-2.05

What measured z-score goes with O=C(N1CCCCC1)[C@@]1(CCS(=O)(=O)c2ccccc2)COC(c2ccc(OCCCO)cc2)=N1 ?
0.32

Further cases:
Could you tell me which z-score is on file for Cc1cc(C)c(C(O)C2C=CC3C(=O)N(c4ccccc4)C(=O)C3N2Nc2ccc(C(C)C)cc2)c(C)c1 (configuration not stated) ?
0.178

Which z-score reading was recorded for the compound C=CCOC(=O)[C@H]1[C@@H]2C(=O)O[C@@H](c3ccccc3)[C@@H](c3ccccc3)N2[C@@H](c2ccc(OCCOC(=O)[C@H]3C[C@H]4C(=O)N[C@@H](CCCCNC(C)=O)C(=O)N4[C@H]3c3ccc(O)cc3)cc2)[C@]12C(=O)Nc1ccccc12 ?
-1.16

Which z-score is reported for this compound? CCOC(=O)C[C@H]1[C@H](OC(=O)c2cc3ccccc3oc2=O)[C@@H](NC(=O)c2ccc(-c3ccccc3)cc2)c2cc(OCCCO)ccc2N1C(=O)c1ccc2ccccc2n1
-0.408

Report z-score for C=CC1c2cc(O)c(OC)cc2CCN1Cc1cc2c(cc1Br)OCO2 (configuration not stated) please.
-1.54

Look up z-score for this compound: COC(=O)C1=CC(CCCO)=CC(C2CC2)N(C)C=C1C(=O)OC (configuration not stated)
0.511

I have this compound here, CN1C(=O)C2C=CC(C(O)c3ccccn3)N(N(c3ccccc3)c3ccccc3)C2C1=O (configuration not stated) , and I need its recorded z-score.
0.613
